Target: SMARCA2 (Homo sapiens, UniProt P51531)
Sequence (P51531 whole entry): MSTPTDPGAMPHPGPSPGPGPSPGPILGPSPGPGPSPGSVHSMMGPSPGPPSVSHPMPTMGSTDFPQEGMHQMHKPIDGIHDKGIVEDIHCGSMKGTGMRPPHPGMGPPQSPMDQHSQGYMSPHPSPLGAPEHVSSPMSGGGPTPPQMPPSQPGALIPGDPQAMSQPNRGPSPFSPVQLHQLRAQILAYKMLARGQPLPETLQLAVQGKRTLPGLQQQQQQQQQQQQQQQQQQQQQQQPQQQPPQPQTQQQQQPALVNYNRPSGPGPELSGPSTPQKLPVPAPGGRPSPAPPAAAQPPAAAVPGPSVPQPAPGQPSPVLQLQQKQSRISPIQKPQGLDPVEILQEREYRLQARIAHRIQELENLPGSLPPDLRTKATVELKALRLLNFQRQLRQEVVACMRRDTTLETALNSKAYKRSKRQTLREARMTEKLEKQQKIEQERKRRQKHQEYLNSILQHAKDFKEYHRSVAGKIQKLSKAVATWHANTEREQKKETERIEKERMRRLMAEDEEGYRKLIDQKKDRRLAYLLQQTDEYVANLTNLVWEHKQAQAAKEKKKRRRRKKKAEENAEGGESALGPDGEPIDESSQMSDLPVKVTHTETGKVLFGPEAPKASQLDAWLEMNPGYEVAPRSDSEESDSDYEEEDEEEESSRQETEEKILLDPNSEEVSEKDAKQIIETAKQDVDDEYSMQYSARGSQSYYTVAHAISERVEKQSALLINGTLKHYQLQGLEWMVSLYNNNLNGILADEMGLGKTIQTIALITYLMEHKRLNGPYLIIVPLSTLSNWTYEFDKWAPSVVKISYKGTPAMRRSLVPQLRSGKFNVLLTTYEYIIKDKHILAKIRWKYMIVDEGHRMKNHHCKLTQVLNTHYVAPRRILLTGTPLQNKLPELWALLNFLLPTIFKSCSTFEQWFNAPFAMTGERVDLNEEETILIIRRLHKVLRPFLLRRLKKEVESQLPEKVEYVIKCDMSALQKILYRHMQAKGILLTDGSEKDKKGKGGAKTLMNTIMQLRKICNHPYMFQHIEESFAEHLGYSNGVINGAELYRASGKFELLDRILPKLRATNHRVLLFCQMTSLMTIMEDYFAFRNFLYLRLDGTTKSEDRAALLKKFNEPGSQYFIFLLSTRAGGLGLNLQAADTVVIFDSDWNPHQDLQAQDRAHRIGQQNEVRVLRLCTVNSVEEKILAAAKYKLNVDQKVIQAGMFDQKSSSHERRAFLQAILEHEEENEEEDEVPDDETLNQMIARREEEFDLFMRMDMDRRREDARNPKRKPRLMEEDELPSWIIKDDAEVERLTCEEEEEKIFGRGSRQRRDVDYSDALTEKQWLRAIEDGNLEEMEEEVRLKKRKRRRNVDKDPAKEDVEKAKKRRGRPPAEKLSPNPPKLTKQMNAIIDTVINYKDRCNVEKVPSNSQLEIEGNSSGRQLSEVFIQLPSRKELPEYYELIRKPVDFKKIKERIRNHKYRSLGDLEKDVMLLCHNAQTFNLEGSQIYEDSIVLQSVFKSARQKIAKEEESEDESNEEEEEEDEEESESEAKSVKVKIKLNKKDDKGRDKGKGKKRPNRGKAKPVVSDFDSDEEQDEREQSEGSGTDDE
Assay: MSD SMARCA2 degradation in NCI-H1299 cell line (24 h)
Type: cell-based
Parameters: HC: NCI-H1299 cells treated with DMSO; host or cells: NCI-H1299
Conditions: NCI-H1299 cells, read-out: SMARCA2 MSD H1299 degradation 24 h: External Abs-DC50
Examples of compounds with documented DC50 follow.

Below are worked cases with known answers.
- compound: "CN1C(=O)CCC(n2c(=O)n(C)c3cc(CCCOCCCCN4CCN(Cc5ccc(-c6cc(-c7ccccc7O)nnc6N)cc5)CC4)ccc32)C1=O (centres unmarked)"
  DC50: "> 1000 nM"
- compound: "CN(CCCCOCCCCc1cccc2c1n(C)c(=O)n2C1CCC(=O)NC1=O)Cc1ccc(N2CCN(c3cc(-c4ccccc4O)nnc3N)CC2)cc1 (centres unmarked)"
  DC50: "100 to 500 nM"
- compound: "Cc1ncsc1-c1ccc(CNC(=O)[C@@H]2C[C@@H](O)CN2C(=O)[C@@H](NC(=O)CCCCCN2CCC(c3cnc(N4C5CCC4CN(c4cc(-c6ccccc6O)nnc4N)C5)nc3)CC2)C(C)(C)C)cc1"
  DC50: "501 to 1000 nM"
- compound: "CN[C@@H](C)C(=O)N[C@H](C(=O)N1Cc2cc(OCCOCCOCCNC(=O)CCCCCCCCOc3ccnc(N4C[C@H]5C[C@@H]4CN5/C=C/C(=O)c4ccccc4O)c3)ccc2C[C@H]1C(=O)N[C@@H]1CCCc2ccccc21)C(C)(C)C"
  DC50: "> 1000 nM"

Recorded DC50 for Cn1c(=O)n(C2CCC(=O)NC2=O)c2ccc(CN3CC(OCCCN4CCN(Cc5ccc(-c6cc(-c7ccccc7O)nnc6N)cc5)CC4)C3)cc21 (centres unmarked) with SMARCA2 (Homo sapiens, UniProt P51531), please?
> 1000 nM

###

Molecular target: SMARCA4 (Homo sapiens, UniProt P51532)
Construct: SMARCA2 and SMARCA4 protein degradation in MV4-11 cells; endogenous in cells; host or cells: MV4-11
Sequence (P51532 whole entry): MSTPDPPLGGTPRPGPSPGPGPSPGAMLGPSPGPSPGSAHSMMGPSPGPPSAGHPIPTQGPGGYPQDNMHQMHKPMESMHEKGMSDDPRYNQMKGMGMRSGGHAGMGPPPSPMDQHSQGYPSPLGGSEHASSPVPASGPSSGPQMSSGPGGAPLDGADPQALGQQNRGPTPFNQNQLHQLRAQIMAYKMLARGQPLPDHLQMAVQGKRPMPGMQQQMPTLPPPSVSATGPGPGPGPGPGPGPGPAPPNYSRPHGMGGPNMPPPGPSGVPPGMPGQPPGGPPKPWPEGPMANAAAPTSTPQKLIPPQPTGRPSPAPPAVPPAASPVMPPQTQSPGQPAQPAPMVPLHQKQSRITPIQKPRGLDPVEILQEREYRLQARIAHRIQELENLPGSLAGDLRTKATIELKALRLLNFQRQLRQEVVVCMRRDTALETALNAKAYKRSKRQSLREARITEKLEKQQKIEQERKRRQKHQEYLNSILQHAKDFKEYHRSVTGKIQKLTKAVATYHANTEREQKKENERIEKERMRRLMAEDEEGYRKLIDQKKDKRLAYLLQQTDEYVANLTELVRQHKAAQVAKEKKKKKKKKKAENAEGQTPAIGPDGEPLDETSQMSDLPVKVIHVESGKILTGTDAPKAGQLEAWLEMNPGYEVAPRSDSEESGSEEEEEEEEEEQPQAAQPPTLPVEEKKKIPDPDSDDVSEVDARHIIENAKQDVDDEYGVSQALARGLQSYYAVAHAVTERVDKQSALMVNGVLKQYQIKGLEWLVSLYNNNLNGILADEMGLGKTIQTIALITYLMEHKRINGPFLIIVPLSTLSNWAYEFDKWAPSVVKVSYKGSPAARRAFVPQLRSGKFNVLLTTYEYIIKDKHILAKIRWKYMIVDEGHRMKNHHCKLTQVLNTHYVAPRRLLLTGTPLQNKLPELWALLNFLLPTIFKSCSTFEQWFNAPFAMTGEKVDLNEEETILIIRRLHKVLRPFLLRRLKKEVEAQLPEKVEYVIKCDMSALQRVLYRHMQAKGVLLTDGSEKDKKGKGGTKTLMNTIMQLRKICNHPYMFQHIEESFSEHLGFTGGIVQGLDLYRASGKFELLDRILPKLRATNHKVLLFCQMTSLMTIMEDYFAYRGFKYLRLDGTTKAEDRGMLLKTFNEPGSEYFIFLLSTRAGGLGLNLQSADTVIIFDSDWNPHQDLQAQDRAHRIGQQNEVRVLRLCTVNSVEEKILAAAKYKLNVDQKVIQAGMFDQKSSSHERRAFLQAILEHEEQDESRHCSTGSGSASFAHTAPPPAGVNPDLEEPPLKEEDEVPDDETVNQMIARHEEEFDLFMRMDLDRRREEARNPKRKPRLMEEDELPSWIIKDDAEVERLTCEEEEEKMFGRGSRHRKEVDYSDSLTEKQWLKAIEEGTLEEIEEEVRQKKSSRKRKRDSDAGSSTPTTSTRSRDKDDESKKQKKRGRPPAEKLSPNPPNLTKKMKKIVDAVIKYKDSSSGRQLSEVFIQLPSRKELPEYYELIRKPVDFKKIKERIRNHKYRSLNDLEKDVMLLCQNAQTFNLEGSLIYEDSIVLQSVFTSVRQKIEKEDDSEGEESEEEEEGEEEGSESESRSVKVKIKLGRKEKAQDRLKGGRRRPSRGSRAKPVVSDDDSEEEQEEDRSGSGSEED
Assay: SMARCA4 Western blot MV4-11 degradation
Format: cell-based
Settings: MV4-11, MV4-11 cells, 24 h, read-out: SMARCA4 WB MV411 degradation 24 h: Average Dmax %
Examples of compounds with documented Dmax follow.

Below are worked cases with known answers.
- compound: "Cc1ncsc1-c1ccc(CNC(=O)[C@@H]2C[C@@H](O)CN2C(=O)[C@@H](NC(=O)[C@H]2C[C@]3(C[C@H](CN4CCC(c5cnc(N6C7CCC6CN(c6cc(-c8ccccc8O)nnc6N)C7)nc5)CC4)C3)C2)C(C)(C)C)cc1 (some centres unmarked)"
  reported measurement: "< 50%"
- compound: "Cn1c(=O)n(C2CCC(=O)NC2=O)c2ccc(CCCN3CCC(c4nccc(N5C6CCC5CN(c5cc(-c7ccccc7O)nnc5N)C6)n4)CC3)cc21 (centres unmarked)"
  reported measurement: "> 90%"

Recorded Dmax for Cc1ncsc1-c1ccc(CNC(=O)[C@@H]2C[C@@H](O)CN2C(=O)[C@@H](NC(=O)[C@H]2CC[C@H](c3cnc(N4C5CCC4CN(c4cc(-c6ccccc6O)nnc4N)C5)nc3)CC2)C(C)(C)C)cc1 with SMARCA4 (Homo sapiens, UniProt P51532), please?
> 90%

Recorded Dmax for Cc1ncsc1-c1ccc(CNC(=O)[C@@H]2C[C@@H](O)CN2C(=O)[C@@H](NC(=O)CCN2CCC(c3cnc(N4C5CCC4CN(c4cc(-c6ccccc6O)nnc4N)C5)nc3)CC2)C(C)(C)C)cc1 with SMARCA4 (Homo sapiens, UniProt P51532), please?
< 50%

Recorded Dmax for Cc1ncsc1-c1ccc(CNC(=O)[C@@H]2C[C@@H](O)CN2C(=O)[C@@H](NC(=O)[C@H](C)N2CCC(c3cnc(N4C5CCC4CN(c4cc(-c6ccccc6O)nnc4N)C5)nc3)CC2)C(C)(C)C)cc1 with SMARCA4 (Homo sapiens, UniProt P51532), please?
> 90%
